Hello, the source for this data is patent US8633184B2, in case you need it.

- protocol_text: Rat study: drug plasma levels (pharmacokinetics)
- Assay type: in vivo
- details: Sprague Dawley, plasma, 3 mg/kg, Dose 3, Multiple, read-out: AUC0-24
property: AUC(0-t) (ng·h/mL)
Just the number in ng·h/mL, nothing appended.

Record O=C(O)COc1ccc2c(c1)CCN(Cc1ccc(-c3ccc(C(F)(F)F)cc3)s1)CC2 [compound 7] . Reported AUC(0-t): 37100

---

- target_under_test: PPARδ (Homo sapiens)
- Sequence (Q03181 211-439 limits assumed, species assumed): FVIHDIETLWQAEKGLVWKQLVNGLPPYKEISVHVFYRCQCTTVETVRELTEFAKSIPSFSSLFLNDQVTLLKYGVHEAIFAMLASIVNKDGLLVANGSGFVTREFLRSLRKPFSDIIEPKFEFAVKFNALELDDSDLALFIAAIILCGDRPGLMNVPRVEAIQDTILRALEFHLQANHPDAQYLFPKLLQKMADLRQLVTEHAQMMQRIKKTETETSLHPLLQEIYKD
- protocol_text: Transfection assay, GAL4-PPARδ LBD luciferase reporter in HEK293 cells
- details: 18-24 hrs
property: EC50

O=C(O)COc1ccc2c(c1)CCN(Cc1cnn(-c3ccc(C(F)(F)F)cc3)c1)CC2 = > 1000 nM
O=C(O)COc1ccc2c(c1)CCN(Cc1ccc(-c3ccc(C(F)(F)F)cc3)cc1)CC2 = > 1000 nM
O=C(O)COc1ccc2c(c1)CCN(Cc1ccnc(-c3ccc(C(F)(F)F)cc3)n1)CC2 = > 1000 nM
O=C(O)COc1ccc2c(c1)CCN(CCc1ccc(-c3ccc(C(F)(F)F)cc3)o1)CC2 = > 1000 nM
O=C(O)COc1ccc2c(c1)CCN(Cc1cccc(-c3ccc(C(F)(F)F)cc3)c1)CC2 = > 3000 nM
O=C(O)COc1ccc2c(c1)CCN(CCc1ccc(-c3ccc(C(F)(F)F)cc3)s1)CC2 = > 3000 nM

Input CC(c1ccc(-c2ccc(C(F)(F)F)cc2)o1)N1CCc2ccc(OCC(=O)O)cc2CC1 (stereo not shown) [compound 28] . Output EC50: < 3 nM

Per the records, this compound ( O=C(O)COc1ccc2c(c1)CCN(Cc1cccc(-c3ccc(C(F)(F)F)cc3)n1)CC2 ) has EC50 equal to > 3000 nM

Field EC50 (entry CC(c1cnc(-c2ccc(C(F)(F)F)cc2)s1)N1CCc2ccc(OCC(=O)O)cc2CC1 (stereo not shown) ) reads < 3 nM

For this compound ( COc1ccc(-c2ccc(CN3CCc4ccc(OCC(=O)O)cc4CC3)o2)cc1 ), measured EC50 is > 1000 nM
